test_method_notes: AUC (0 to 24 hrs) in 12-17 years old adolescents at 50 mg/m'2, iv dosed once daily measured on day 4 post dose
Assay type: ADME, organism-based
Parameters: time < 24 hr, route intravenous
measurement_conditions: human, plasma
parameter: AUC at 24 h (µg·h/mL)
Report only the number, with the unit µg·h/mL understood.

Notebook: CC[C@H](C)C[C@H](C)CCCCCCCCC(=O)N[C@H]1C[C@@H](O)[C@@H](NCCN)NC(=O)[C@@H]2[C@@H](O)CCN2C(=O)[C@H]([C@H](O)CCN)NC(=O)[C@H]([C@H](O)[C@@H](O)c2ccc(O)cc2)NC(=O)[C@@H]2C[C@@H](O)CN2C(=O)[C@H]([C@@H](C)O)NC1=O , AUC at 24 h read as 117

---

test_method_notes: Cmax in plasma of in […] infants/toddlers measured on day 1 post dose
Format: ADME, organism-based
measurement_conditions: human
parameter: Cmax (ng/mL)
# number only, unit ng/mL dropped from output

Please fill in: Cmax reported for CC[C@H](C)C[C@H](C)CCCCCCCCC(=O)N[C@H]1C[C@@H](O)[C@@H](NCCN)NC(=O)[C@@H]2[C@@H](O)CCN2C(=O)[C@H]([C@H](O)CCN)NC(=O)[C@H]([C@H](O)[C@@H](O)c2ccc(O)cc2)NC(=O)[C@@H]2C[C@@H](O)CN2C(=O)[C@H]([C@@H](C)O)NC1=O = 13000

---

test_method_notes: Cmax in plasma of in 17 years old infants/toddlers measured on day 4 post dose
Assay type: ADME, organism-based
measurement_conditions: human
parameter: Cmax
Form entry: enter the amount, then its unit.

Quick note, Cmax for CC[C@H](C)C[C@H](C)CCCCCCCCC(=O)N[C@H]1C[C@@H](O)[C@@H](NCCN)NC(=O)[C@@H]2[C@@H](O)CCN2C(=O)[C@H]([C@H](O)CCN)NC(=O)[C@H]([C@H](O)[C@@H](O)c2ccc(O)cc2)NC(=O)[C@@H]2C[C@@H](O)CN2C(=O)[C@H]([C@@H](C)O)NC1=O landed at 16400 ng/mL

---

test_method_notes: Cmax in plasma of 3-24 months old infants/toddlers at 50 mg/m'2, iv dosed once daily measured on day 4 post dose
Type: ADME, organism-based
Set-up: route intravenous
measurement_conditions: human
parameter: Cmax (ng/mL)
Form entry: value (ng/mL) — number only.

Short answer for CC[C@H](C)C[C@H](C)CCCCCCCCC(=O)N[C@H]1C[C@@H](O)[C@@H](NCCN)NC(=O)[C@@H]2[C@@H](O)CCN2C(=O)[C@H]([C@H](O)CCN)NC(=O)[C@H]([C@H](O)[C@@H](O)c2ccc(O)cc2)NC(=O)[C@@H]2C[C@@H](O)CN2C(=O)[C@H]([C@@H](C)O)NC1=O [CASPOFUNGIN] : Cmax was 17200

---

test_method_notes: Cmax in plasma of 2-11 years old children at 50 mg/m'2, iv dosed once daily measured on day 4 post dose
Assay type: ADME, organism-based
Parameters: route intravenous
measurement_conditions: human
parameter: Cmax (ng/mL)
Respond with the bare value in ng/mL.

So for CC[C@H](C)C[C@H](C)CCCCCCCCC(=O)N[C@H]1C[C@@H](O)[C@@H](NCCN)NC(=O)[C@@H]2[C@@H](O)CCN2C(=O)[C@H]([C@H](O)CCN)NC(=O)[C@H]([C@H](O)[C@@H](O)c2ccc(O)cc2)NC(=O)[C@@H]2C[C@@H](O)CN2C(=O)[C@H]([C@@H](C)O)NC1=O , the logged Cmax turned out to be 15600
